The measurements presented in this section are drawn from patent US3996359A.

# System: rats subjected to adrenalectomy (granuloma around implanted cotton wads)
# ASSAY_OVERVIEW: granulom test (cotton-pellet test) on rats subjected to adrenalectomy: granuloma growth, thymus weight, body weight increase
# Type: in vivo, rat (Sprague-Dawley)
# COND: rat, in vivo, 11520 min
As shown below, each of these compounds has a reported Dose required to obtain 25% inhibition of Body weight Increase value.
ENDPOINT_NAME: Dose required to obtain 25% inhibition of Body weight Increase

COMPOUND | READOUT_VALUE
CCC1O[C@@H]2C[C@H]3[C@@H]4CCC5=CC(=O)C=C[C@]5(C)[C@@]4(F)[C@@H](O)C[C@]3(C)[C@]2(C(=O)CO)O1 (single isomer, unassigned) [2 A] | 90 γ/animal
CCCC1OC2CC3C4CCC5=CC(=O)C=CC5(C)C4(F)C(O)CC3(C)C2(C(=O)COC(=O)c2cccnc2)O1 (mixture of isomers) | 10 γ/animal
CCCC1OC2CC3C4CCC5=CC(=O)C=CC5(C)C4(F)C(O)CC3(C)C2(C(=O)CO)O1 (mixture of isomers) | > 30 γ/animal
CCCC1OC2CC3C4CC(F)C5=CC(=O)C=CC5(C)C4(F)C(O)CC3(C)C2(C(=O)CO)O1 (mixture of isomers) | 50 γ/animal
CC1O[C@@H]2C[C@H]3[C@@H]4CCC5=CC(=O)C=C[C@]5(C)[C@@]4(F)[C@@H](O)C[C@]3(C)[C@]2(C(=O)COC(=O)c2cccnc2)O1 (single isomer, unassigned) [17 B] | 20 γ/animal
CCCC1O[C@@H]2C[C@H]3[C@@H]4CCC5=CC(=O)C=C[C@]5(C)[C@@]4(F)[C@@H](O)C[C@]3(C)[C@]2(C(=O)CO)O1 (single isomer, unassigned) [3 B] | 100 γ/animal
CC1O[C@@H]2C[C@H]3[C@@H]4CCC5=CC(=O)C=C[C@]5(C)[C@@]4(F)[C@@H](O)C[C@]3(C)[C@]2(C(=O)CO)O1 (some centres unmarked) [1 A+B] | > 270 γ/animal
CC1(C)O[C@@H]2C[C@H]3[C@@H]4CCC5=CC(=O)C=C[C@]5(C)[C@@]4(F)[C@@H](O)C[C@]3(C)[C@]2(C(=O)CO)O1 [Triamcinolone acetonide, reference compound] | 100 γ/animal
CCCC1O[C@@H]2C[C@H]3[C@@H]4CCC5=CC(=O)C=C[C@]5(C)[C@H]4[C@@H](O)C[C@]3(C)[C@]2(C(=O)COC(C)=O)O1 (single isomer, unassigned) [27 A] | 100 γ/animal
CCCCC1O[C@@H]2C[C@H]3[C@@H]4CCC5=CC(=O)C=C[C@]5(C)[C@@]4(F)[C@@H](O)C[C@]3(C)[C@]2(C(=O)CO)O1 (single isomer, unassigned) [4 B] | 100 γ/animal
CCCC1O[C@@H]2C[C@H]3[C@@H]4CCC5=CC(=O)C=C[C@]5(C)[C@H]4[C@@H](O)C[C@]3(C)[C@]2(C(=O)CO)O1 (single isomer, unassigned) [12 A] | > 270 γ/animal
